target: T1, HLA-A2/E6 (29-38) tetramer (human; HPV 16); assay: tetramer flow cytometry; transfected 1:1 CD4+ and CD4+/CD8+ Jurkat-derived cells;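 further: cell mixtures transiently transfected with TCR-encoding plasmids, analysed by flow cytometry 48 h later after HLA-A*02:01 E6 tetramer staining combined with anti-CD8 antibody co-staining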
T1 construct: also called E6(29-38) peptide-MHC tetramer; E6(29-38)-loaded tetramer
assayReadout: % cells in E6 tet-/CD8+ quadrant

Example entries and their recorded answers appear below.
TCR 17 (codon optimized, cysteine modified version) (TCR, V domains shown) V domain 1: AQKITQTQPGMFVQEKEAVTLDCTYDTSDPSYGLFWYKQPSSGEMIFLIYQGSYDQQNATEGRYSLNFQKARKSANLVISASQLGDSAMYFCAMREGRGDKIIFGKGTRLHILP V domain 2: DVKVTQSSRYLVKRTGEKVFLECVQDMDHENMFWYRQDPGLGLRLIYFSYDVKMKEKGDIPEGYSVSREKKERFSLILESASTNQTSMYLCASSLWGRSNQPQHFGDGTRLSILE | 7.72%
TCR 16 (codon optimized, cysteine modified version) (TCR, V domains shown) V domain 1: KQEVTQIPAALSVPEGENLVLNCSFTDSAIYNLQWFRQDPGKGLTSLLLIQSSQREQTSGRLNASLDKSSGRSTLYIAASQPGDSATYLCAVRPANNNDMRFGAGTRLTVKP V domain 2: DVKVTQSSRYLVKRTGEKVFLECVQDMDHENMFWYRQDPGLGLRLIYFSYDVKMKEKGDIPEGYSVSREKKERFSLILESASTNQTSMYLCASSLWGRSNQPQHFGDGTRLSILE | 9.51%
TCR 30 (codon optimized, cysteine modified version) (TCR, V domains shown) V domain 1: DAKTTQPPSMDCAEGRAANLPCNHSTISGNEYVYWYRQIHSQGPQYIIHGLKNNETNEMASLIITEDRKSSTLILPHATLRDTAVYYCIVRGTSVLQGNEKLTFGTGTRLTIIP V domain 2: EPEVTQTPSHQVTQMGQEVILRCVPISNHLYFYWYRQILGQKVEFLVSFYNNEISEKSEIFDDQFSVERPDGSNFTLKIRSTKLEDSAMYFCASSRQPSSGNTIYFGEGSWLTVVE | 13.9%
TCR 23 (codon optimized, cysteine modified version) (TCR, V domains shown) V domain 1: AQKITQTQPGMFVQEKEAVTLDCTYDTSDQSYGLFWYKQPSSGEMIFLIYQGSYDEQNATEGRYSLNFQKARKSANLVISASQLGDSAMYFCAMSPPGGSARQLTFGSGTQLTVLP V domain 2: DVKVTQSSRYLVKRTGEKVFLECVQDMDHENMFWYRQDPGLGLRLIYFSYDVKMKEKGDIPEGYSVSREKKERFSLILESASTNQTSMYLCASSPWGQSNQPQHFGDGTRLSILE | 5.19%
TCR 28 (codon optimized, cysteine modified version) (TCR, V domains shown) V domain 1: RKEVEQDPGPFNVPEGATVAFNCTYSNSASQSFFWYRQDCRKEPKLLMSVYSSGNEDGRFTAQLNRASQYISLLIRDSKLSDSATYLCVVRGGGTSYGKLTFGQGTILTVHP V domain 2: DVKVTQSSRYLVKRTGEKVFLECVQDMDHENMFWYRQDPGLGLRLIYFSYDVKMKEKGDIPEGYSVSREKKERFSLILESASTNQTSMYLCASSLWGRSSGNTIYFGEGSWLTVVE | 31.4%

Req: Return reported % cells in E6 tet-/CD8+ quadrant. Input binder: TCR 24 (codon optimized, cysteine modified version) (TCR, V domains shown) V domain 1: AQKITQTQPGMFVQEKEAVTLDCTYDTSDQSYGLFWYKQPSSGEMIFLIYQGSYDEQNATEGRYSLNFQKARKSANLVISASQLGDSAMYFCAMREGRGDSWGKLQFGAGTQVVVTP V domain 2: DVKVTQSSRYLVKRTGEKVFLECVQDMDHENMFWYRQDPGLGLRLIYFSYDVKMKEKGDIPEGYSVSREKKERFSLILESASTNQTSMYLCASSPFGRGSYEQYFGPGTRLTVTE
Resp: 5.56%

Req: Return reported % cells in E6 tet-/CD8+ quadrant. Input binder: TCR 15 (codon optimized, cysteine modified version) (TCR, V domains shown) V domain 1: AQKITQTQPGMFVQEKEAVTLDCTYDTSDQSYGLFWYKQPSSGEMIFLIYQGSYDEQNATEGRYSLNFQKARKSANLVISASQLGDSAMYFCAMKPGGYNKLIFGAGTRLAVHP V domain 2: DAGVIQSPRHEVTEMGQEVTLRCKPISGHNSLFWYRQTMMRGLELLIYFNNNVPIDDSGMPEDRFSAKMPNASFSTLKIQPSEPRDSAVYFCASSLVGRSRTEQYFGPGTRLTVTE
Resp: 13.6%

Req: Return reported % cells in E6 tet-/CD8+ quadrant. Input binder: TCR 25 (codon optimized, cysteine modified version) (TCR, V domains shown) V domain 1: AQKITQTQPGMFVQEKEAVTLDCTYDTSDQSYGLFWYKQPSSGEMIFLIYQGSYDEQNATEGRYSLNFQKARKSANLVISASQLGDSAMYFCAMREGSLTGGGNKLTFGTGTQLKVEL V domain 2: DVKVTQSSRYLVKRTGEKVFLECVQDMDHENMFWYRQDPGLGLRLIYFSYDVKMKEKGDIPEGYSVSREKKERFSLILESASTNQTSMYLCASSLWGQSNQPQHFGDGTRLSILE
Resp: 10.2%

Req: Return reported % cells in E6 tet-/CD8+ quadrant. Input binder: TCR 26 (codon optimized, cysteine modified version) (TCR, V domains shown) V domain 1: AQKITQTQPGMFVQEKEAVTLDCTYDTSDQSYGLFWYKQPSSGEMIFLIYQGSYDEQNATEGRYSLNFQKARKSANLVISASQLGDSAMYFCAMRDARNNDMRFGAGTRLTVKP V domain 2: NAGVTQTPKFRVLKTGQSMTLLCAQDMNHEYMYWYRQDPGMGLRLIHYSVGEGTTAKGEVPDGYNVSRLKKQNFLLGLESAAPSQTSVYFCASSYYASGRNYEQYFGPGTRLTVTE
Resp: 1.58%

Req: Return reported % cells in E6 tet-/CD8+ quadrant. Input binder: TCR 29 (codon optimized, cysteine modified version) (TCR, V domains shown) V domain 1: AQKITQTQPGMFVQEKEAVTLDCTYDTSDQSYGLFWYKQPSSGEMIFLIYQGSYDEQNATEGRYSLNFQKARKSANLVISASQLGDSAMYFCAMRLNTGTASKLTFGTGTRLQVTL V domain 2: DGGITQSPKYLFRKEGQNVTLSCEQNLNHDAMYWYRQDPGQGLRLIYYSQIVNDFQKGDIAEGYSVSREKKESFPLTVTSAQKNPTAFYLCASSPWGRATNEQFFGPGTRLTVLE
Resp: 2%

Recorded values, source patent US20190225692A1.
